- condition set: buffer; pH 7.4; 200.0 µM
measured parameter: solubility kinetic

> print(dat)
                                   compound  reported.measurement
1        Cc1nc(C(F)(F)F)ccc1C(=O)Nc1ccccc1F          > 44.7 µg/mL
2    CC(=O)N1CCN(C(=S)Nc2ccc(SC(F)F)cc2)CC1          > 51.8 µg/mL
3  O=C(c1cc(O)c(O)c([N+](=O)[O-])c1)c1ccccc1F          > 41.6 µg/mL
4  Cc1ccc(S(=O)(=O)NCC[C@@]2(C)C3CCC2(C)C(=O)C3)cc1 (some centres undefined)          > 50.3 µg/mL
5  CCC(C)c1ccccc1NS(=O)(=O)c1cnn(CC)c1 (centres undefined)          > 46.1 µg/mL
6  O=C(O)Cc1c(-c2ccccc2)c2cc(Cl)ccc2[nH]c1=O          > 47.1 µg/mL
7  O=C(O)CN1C(=O)C(=O)N(Cc2ccc(C(F)(F)F)cc2)C1=O          > 49.5 µg/mL
8       CCSc1nc2cc(S(=O)(=O)N3CCOCC3)ccc2o1          > 49.3 µg/mL

Next up:
Hello, please tell me recorded solubility kinetic for this one: CCc1nnc(NC(=O)C2CSC3(C)CCC(=O)N23)s1 (centres undefined) > 46.9 µg/mL
